- Assay Info: Toxicity liver stage against HepG2, at 10uM
- Type: cell-based
- Set-up: test concentration 10 uM, cell line HepG2-A16-CD81EGFP
- Settings: human, HepG2-A16-CD81EGFP cells; read-out: INHIBITION
Answer each item with its documented cytotoxicity at 10 µM.
Numbers only, in %.

QUERY: Give the reported value of cytotoxicity at 10 µM for this record: FC1(F)CCN(Cc2ccccn2)CC12CCN(c1cccnc1)C2 (stereo unspecified)
RESULT: 25.5

Provide each entry's cytotoxicity at 10 µM from the list below.
1. CC1(C(=O)N2CCOCC2)CN(Cc2ncc[nH]2)CCO1 (stereo unspecified)
2. CCn1ccc(C(=O)N(C)Cc2cnn(-c3cccc(OC)c3)c2)n1
3. CS(=O)(=O)c1nnc(NC(=O)CCc2cccc(Cl)c2)[nH]1
4. CCc1nc2n(n1)CC(NCc1nc3ccccc3nc1C)CC2 (stereo unspecified)
5. CS(=O)(=O)NC[C@@H]1OC[C@H]2CN(Cc3ccsc3)CC[C@H]21

RESULT:
[-11.3, 6.26, -20.4, -141, 14.3]

* * *

- Assay Info: Toxicity liver stage against HepG2, at 10uM
- Type: cell-based
- Set-up: test concentration 10 uM, cell line HepG2-A16-CD81EGFP
- Settings: human, HepG2-A16-CD81EGFP cells; read-out: INHIBITION
Could you please report measured cytotoxicity at 10 µM for the items listed next?
Numbers only, in %.

Examples with their reported cytotoxicity at 10 µM follow.
QUERY: Hello, please tell me recorded cytotoxicity at 10 µM for this one: `CSc1ccc(-c2nc(CN3CCC(NC(C)=O)CC3)c(C)o2)cc1`
RESULT: -2.76

QUERY: Hello, please tell me recorded cytotoxicity at 10 µM for this one: `CC(C)(N)c1cn(C2CCN(c3ncccc3Cl)CC2)nn1`
RESULT: -48

QUERY: Determine its reported cytotoxicity at 10 µM: `c1cnc(N2CCC(c3nccn3CC3CC3)CC2)nc1`
RESULT: -7.28

QUERY: Input `CC(C)Oc1cc(N2CCC(N3CCC(O)CC3)CC2)nc(N)n1` , output reported cytotoxicity at 10 µM.
RESULT: -12.2

QUERY: Specify measured cytotoxicity at 10 µM for `O=C(Cn1cccnc1=O)NCc1cccnc1OCC(F)(F)F` .
RESULT: -11.9

In the following, a different molecule is considered.
QUERY: Let me know recorded cytotoxicity at 10 µM for `Cc1c(C(=O)N2CCC2(C)C)nnn1-c1cccc2cnccc12` , thanks.
RESULT: -2.15

* * *

- Assay Info: Toxicity liver stage against HepG2, at 10uM
- Assay type: cell-based
- Parameters: test concentration 10 uM, cell line HepG2-A16-CD81EGFP
- Settings: human, HepG2-A16-CD81EGFP cells; read-out: INHIBITION
Please go through the items and note down their cytotoxicity at 10 µM.
Answers are plain numbers, in %.

These solved cases illustrate the format of a correct answer.
QUERY: Give a short answer stating reported cytotoxicity at 10 µM for `Cc1cc(CN2CCN(C(=O)NCc3ccco3)CC2)no1` .
RESULT: -14.8

QUERY: Given the compound `Cc1cc(C)n(CCN(C)c2ccc(-c3nc(C4CC4)no3)cn2)n1` , write its reported cytotoxicity at 10 µM.
RESULT: 6.08

QUERY: Fill in reported cytotoxicity at 10 µM for this entry: Cc1ccc(C(C(=O)N2CCC(Cc3noc(C)n3)CC2)N(C)C)cc1 (stereo not drawn)
RESULT: -5.37

For every record below, what is its cytotoxicity at 10 µM?
1. NCCC1CN(c2nc(-c3ccccc3)nc3c2CCNC3)CCO1 (stereo not drawn)
2. CCc1ncc(C(=O)N2CCC(O)(CN3CCOCC3)C(C)(C)C2)cn1 (stereo not drawn)
3. CCc1nnc(Nc2cc(C)nc(C3CCN(c4ncccn4)C3)n2)s1 (stereo not drawn)

RESULT:
1: -9.26; 2: -4.6; 3: 3.07

Consider the following items and state reported cytotoxicity at 10 µM for each.
1. Cc1cc(S(=O)(=O)N2CCCc3cc(F)cc(F)c32)sc1C(=O)O
2. O=C(O)[C@@H]1CN(CC(=O)N2CCCCC2)C[C@H]1c1ccc(F)cc1
3. CO[C@@]1(C)C[C@@H](O)C12CCN(C(=O)c1ccccc1C(C)=O)CC2
4. COc1ncccc1CN1C[C@@H]2COC[C@]2(COc2ccccn2)C1
5. Cc1nn(C)cc1-c1cc(-c2cn(C)nc2C)n(CC(=O)NC2CC2)n1

RESULT:
1: 21.8; 2: -3.95; 3: 3.51; 4: -3.87; 5: 4.46

I need cytotoxicity at 10 µM for every entry listed below, if you could help.
1. Cc1cc2c(c(-c3cnccn3)c1)OC(CN)C2 (stereo not drawn)
2. CNC(=O)[C@@H]1C[C@@H](N)CN1c1nnc(-c2ccccc2)s1
3. COc1ncccc1CN1C[C@@H]2COC[C@]2(COc2cccnc2)C1

RESULT:
-5.13
-36
-0.182

Respectfully, I request cytotoxicity at 10 µM for each entry included below.
1. CCOCc1ccc(NC(=O)N2CCOC3(CCC3)C2)cc1
2. COc1cccc(SCC(=O)N2CCC(N3CCCC(O)C3)CC2)c1 (stereo not drawn)
3. CCN1CCc2[nH]nc(C(=O)N3CCCC3C)c2C1 (stereo not drawn)
4. CC(C)(CO)Nc1cc(-c2cn[nH]c2)ncn1
5. O=C(NC1CCCC1)[C@@H]1C[C@@H]2CCN(Cc3ccoc3)C[C@H]2O1
6. COc1cccc(CN2C[C@@H]3COC[C@]3(COCc3ccccn3)C2)c1
7. O=C1NC2(CCN(Cc3ccc(F)cc3)CC2)CC1c1ccncc1 (stereo not drawn)
8. CS(=O)(=O)c1cn[nH]c1C1CCCN(C(=O)CN2CCOCC2)C1 (stereo not drawn)

RESULT:
[4.29, -18.7, -4.9, -1.44, -110, -88.8, 3.16, -22.8]

QUERY: Item `CCCc1nc(C(=O)N2C[C@H](CO)C[C@H](CN3CCOCC3)C2)cs1` : provide cytotoxicity at 10 µM
RESULT: 3.79

* * *

- Assay Info: Toxicity liver stage against HepG2, at 10uM
- Assay type: cell-based
- Set-up: test concentration 10 uM, cell line HepG2-A16-CD81EGFP
- Settings: human, HepG2-A16-CD81EGFP cells; read-out: INHIBITION
Measurement Name: cytotoxicity at 10 µM (%)
Numbers only, in %.

// below: answered molecules
QUERY: Specify reported cytotoxicity at 10 µM for the molecule shown: COc1cc(C)c2c(c1C)C[C@@H](C(C)C(=O)O)CC2 (stereo not given in full)
RESULT: 4.98

QUERY: Give the measured cytotoxicity at 10 µM for Cc1cc(N)nc(SC2CCCN(Cc3ccccc3)C2=O)n1 (stereo not given)
RESULT: -5.45

QUERY: Give the value of cytotoxicity at 10 µM reported for the following: `Cc1cnn(C2CN(CCOc3cccc(C#N)c3)C2)c1`
RESULT: 5.62

QUERY: Give the reported cytotoxicity at 10 µM for this molecule. `CCc1c(O)nc(SCC(=O)c2ccccc2)n(-c2ccccc2)c1=O`
RESULT: 3.19

QUERY: For the molecule `CC(C)OCc1nn(C)c2c1CCN(CC1CC1)C2` , report cytotoxicity at 10 µM.
RESULT: 4.91

Lab note: each molecule below needs its cytotoxicity at 10 µM filled in.
1. C[C@]1(O)CCN(Cc2c[nH]cn2)C[C@@H]1Oc1cccc(F)c1
2. Cc1cc(CC(=O)N(C)Cc2cccc(OC(C)C)c2)n[nH]1
3. Cc1ccc(OCCC(=O)NC2CC(=O)N(C)C2)cc1C (stereo not given)
4. O=C(NCCC(O)c1cccs1)c1ccco1 (stereo not given)
5. CNC(=O)Cc1csc(NC(=O)C2CSCCC(=O)N2)n1 (stereo not given)
6. CN(C)Cc1nn(C)c2c1CCN(C(=O)c1cccnc1)C2
7. Cc1nc(CN[C@H]2CCCN(C(=O)OC(C)(C)C)C2)cs1
8. COCCCNc1c(-c2ccc(Cl)cc2)c(=O)c1=O

RESULT:
1: -5.72; 2: 1.1; 3: -9.25; 4: -14.7; 5: -4.94; 6: 6.24; 7: 0.577; 8: 39.2

// batch mode: one cytotoxicity at 10 µM value per listed entry
1. CCOCCCNCc1cc(O)c2cc(C)ccc2n1
2. O=C(NCC1CCOC1)c1cc(-c2cccc(Cl)c2)on1 (stereo not given)
3. CCC(CO)N(Cc1cccs1)C(=O)Cc1ccc(O)cc1 (stereo not given)

RESULT:
-11.1
-8.75
6.57

Give one value of cytotoxicity at 10 µM per listed molecule.
1. O=C(c1ccc(C2CCNC2)cc1)N1CCC(N2CCC(O)CC2)CC1 (stereo not given)
2. CC1CN(C(=O)NCCc2nc(C(C)C)no2)CCO1 (stereo not given)
3. COc1cc(OC)cc(-c2cc(N)on2)c1
4. CC(C)c1nc(C2CCCN(C(=O)CCCn3cccn3)C2)no1 (stereo not given)
5. COCc1cc(N2CCN(C3CCCCC3)CC2)n2nccc2n1
6. CN1CCCC[C@@H]2[C@H]1[C@@H](c1ccccc1)CCN2C(=O)c1ccccn1
7. CC(N)Cc1ccccc1Sc1ccccc1 (stereo not given)

RESULT:
1. -7.62
2. -0.745
3. 7.79
4. -1.36
5. 3.59
6. -14.7
7. 5.41

Each of the following entries comes with a recorded value; kindly state cytotoxicity at 10 µM for each.
1. F[C@@H]1CN(CC2CC2)C[C@@H]1OCc1nc2ccccc2[nH]1
2. Cc1nccc(N[C@H]2CN(CC(C)(C)N3CCOCC3)C[C@@H]2C2CC2)n1

RESULT:
1. -1.34
2. 3.03
